# measured_on: Growth hormone secretagogue receptor type 1 (Homo sapiens, UniProt Q92847)
# Sequence (Q92847 whole entry): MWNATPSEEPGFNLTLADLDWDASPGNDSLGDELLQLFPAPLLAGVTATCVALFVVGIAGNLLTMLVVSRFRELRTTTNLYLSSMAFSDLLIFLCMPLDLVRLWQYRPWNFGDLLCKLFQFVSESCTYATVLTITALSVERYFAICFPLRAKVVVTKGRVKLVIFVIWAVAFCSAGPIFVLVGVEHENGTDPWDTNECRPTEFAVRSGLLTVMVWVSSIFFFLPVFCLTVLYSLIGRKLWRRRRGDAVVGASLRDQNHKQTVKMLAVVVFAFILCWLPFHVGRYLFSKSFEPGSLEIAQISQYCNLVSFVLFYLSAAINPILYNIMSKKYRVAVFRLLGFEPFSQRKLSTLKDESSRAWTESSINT
measured_property: AC50

O=C(Nc1ccccc1)OCC(CN1CCCCC1)OC(=O)Nc1ccccc1 (stereo not drawn)    > 30 µM
CN1CCN(C(=O)OC2c3nccnc3C(=O)N2c2ccc(Cl)cn2)CC1 (stereo not drawn)    > 30 µM

In: # query: AC50 of entry `COc1ccc2c(c1)C(=O)N(CCc1ccc(S(=O)(=O)NC(=O)NC3CCCCC3)cc1)C(=O)C2(C)C`
Out: > 30 µM

* * *

A short record of AC50 observed with Mu-type opioid receptor (Homo sapiens) follows.
Sequence (P35372 whole entry): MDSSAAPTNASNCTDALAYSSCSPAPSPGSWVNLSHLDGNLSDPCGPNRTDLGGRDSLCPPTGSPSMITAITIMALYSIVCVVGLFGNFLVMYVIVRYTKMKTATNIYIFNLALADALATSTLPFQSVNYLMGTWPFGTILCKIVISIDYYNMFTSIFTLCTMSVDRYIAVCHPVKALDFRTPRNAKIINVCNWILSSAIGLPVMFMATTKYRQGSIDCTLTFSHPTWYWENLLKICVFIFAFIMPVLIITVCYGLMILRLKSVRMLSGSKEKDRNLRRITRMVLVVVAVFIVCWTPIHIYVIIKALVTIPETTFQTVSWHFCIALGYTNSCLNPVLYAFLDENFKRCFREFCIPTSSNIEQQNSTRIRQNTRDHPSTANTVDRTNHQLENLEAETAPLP

Sample answers from the record:
CCC(=O)O[C@H]1[C@H](O[C@@H]2[C@@H](C)[C@H](O[C@H]3C[C@@](C)(OC)[C@@H](O)[C@H](C)O3)[C@@H](C)C(=O)O[C@H](CC)[C@@](C)(O)[C@H](O)[C@@H](C)C(=O)[C@H](C)C[C@@]2(C)O)O[C@H](C)C[C@@H]1N(C)C [ERYTHROMYCIN PROPIONATE]    16.2 µM
CO/N=C(\C(=O)N[C@@H]1C(=O)N2C(C(=O)OCOC(=O)C(C)(C)C)=C(C)CS[C@H]12)c1csc(N)n1    > 30 µM
CC(C(=O)O)c1ccc2c(c1)Cc1cccnc1O2 (stereo unspecified) [PRANOPROFEN]    > 30 µM

Parameters: items (list). Returns: AC50 for each item.
1. Cc1c(-c2ccccc2)oc2c(C(=O)OCCN3CCCCC3)cccc2c1=O [FLAVOXATE]
2. C#C[C@]1(O)CC[C@H]2[C@@H]3CCC4=CC(=O)CC[C@@H]4[C@H]3CC[C@@]21CC [LEVONORGESTREL]

Out:
3.05 µM
> 30 µM

Parameters: items (list). Returns: AC50 for each item.
1. CC1=NN(c2ccccc2)C(=O)C1 [EDARAVONE]
2. Cc1c(O)cccc1C(=O)N[C@@H](CSc1ccccc1)[C@H](O)CN1C[C@H]2CCCC[C@H]2C[C@H]1C(=O)NC(C)(C)C
3. C[C@@H]1C[C@H]2[C@@H]3C[C@H](F)C4=CC(=O)C=C[C@]4(C)[C@@]3(F)[C@@H](O)C[C@]2(C)[C@@]1(O)C(=O)COC(=O)C(C)(C)C [FLUMETHASONE PIVALATE]
4. O=C(O)c1cccc(-c2noc(-c3ccccc3F)n2)c1
5. CCC1C(C)=NN=C(c2ccc(OC)c(OC)c2)c2cc(OC)c(OC)cc21 (stereo unspecified) [TOFISOPAM]
6. CCC(=O)c1c(O)cc(O)cc1O [FLOPROPIONE]
7. Oc1ncnc2[nH]ncc12 [ALLOPURINOL]
8. CC1(C)O[C@@H]2C[C@H]3[C@@H]4C[C@H](F)C5=CC(=O)CC[C@]5(C)[C@H]4[C@@H](O)C[C@]3(C)[C@]2(C(=O)CO)O1 [FLURANDRENOLIDE]

Out:
1: > 30 µM; 2: 15.3 µM; 3: > 30 µM; 4: > 30 µM; 5: > 30 µM; 6: > 30 µM; 7: > 30 µM; 8: > 30 µM

Parameters: items (list). Returns: AC50 for each item.
1. O=C1c2c(O)c(=O)ccn2N([C@@H]2c3ccccc3SCc3c2ccc(F)c3F)[C@@H]2COCCN12 [BALOXAVIR]
2. Cn1cc[nH]c1=S [METHIMAZOLE]
3. CCCCN(CCCC)CCCOC(=O)c1ccc(N)cc1 [BUTACAINE]

Out:
22 µM
> 30 µM
> 30 µM
